Recorded values, source ChEMBL document CHEMBL1201862.

Quick list: GI50 per entry.
Test system: HOP-92
PROCEDURE_DETAILS: NCI tumour cell line growth inhibition, 48 h
Activity calls are given as the source filed them. No stated cut-off is given here; in the data, active = GI50 up to about 1.1 µM and inactive = higher.

Take a look at these entries with their results.
// query Entry Cn1cnc([N+](=O)[O-])c1Sc1nccn1-c1cccc2ccccc12 : reported GI50 = ?
// result 15.3 µM (inactive)

// query Could you do the same for COc1cc(/C=C2/C[C@H]3[C@@H]4CC=C5C[C@@H](OC(C)=O)CC[C@]5(C)[C@H]4CC[C@]3(C)NC2=O)cc(OC)c1OC , please?
// result 24.6 µM (inactive)

// query Thanks! And COC(=O)c1c2cccccc-2c(Cc2c3cccccc-3c(C(=O)OC)c2O)c1O ?
// result > 100 µM (inactive)

// query Check Cn1cnc([N+](=O)[O-])c1Sc1nncc2[nH]cnc12 too.
// result > 100 µM (inactive)

Continuing:
// query Using the record for CCN1C(=O)/C(=C/Nc2ccccc2)S/C1=N/Nc1nc(-c2ccc(O)c(O)c2)cs1 , report its GI50.
// result 13.2 µM (inactive)

###

System: BT-549
PROCEDURE_DETAILS: NCI tumour cell line growth inhibition, 48 h
Calls of active or inactive are those of the source. Cut-off read from the data, not from the text of the source: active = GI50 up to about 1.1 µM and inactive = higher.
Items are presented alongside their recorded GI50.

// query Find the recorded GI50 belonging to Cc1ccc2c(c1)nc1n2C(N)=Nc2ccccc2S1 and report it.
// result > 100 µM (inactive)

// query Proceed to Cc1ccc(S(=O)(=O)N/N=C/C(Br)=C(/Br)C(=O)O)cc1
// result 6.55 µM (inactive)

// query Would you mind doing CCCC1NC(C#N)(C#N)C(CCC)NC1(C#N)C#N (stereo not given) as well?
// result 1.12 µM (inactive)

// query Same for COC(=O)C(Cc1c(C2Nc3ccccc3C2CC(NC(C)=O)C(=O)OC)[nH]c2ccccc12)NC(C)=O (stereo not given)
// result > 100 µM (inactive)

Now turn to the next compound.
// query Look up GI50 for this compound: C[C@@H](CC(=O)O)OC1OC(COC(=O)C(C)(C)C)C(OC(=O)C(C)(C)C)C(OC(=O)C(C)(C)C)C1OC(=O)C(C)(C)C (stereo not given in full)
// result 57 µM (inactive)

###

Consider the following compounds and their measured GI50 readings.
Test system: SK-MEL-2
PROCEDURE_DETAILS: NCI tumour cell line growth inhibition, 48 h
The source made the active and inactive calls. Rule as the data show it: active = GI50 up to about 1.1 µM and inactive = higher.

// query Which value of GI50 has been reported for Cc1cn(Cc2ccccc2CCl)c(=O)[nH]c1=O in the records?
// result 14.3 µM (inactive)

// query // same read-out, input: N#Cc1c2nc3ccccc3nc2n2ccc3ccccc3c12
// result > 100 µM (inactive)

// query What would you report for C=CCNC(=S)N/N=C1\C(=O)N(CN2CCOCC2)c2ccc([N+](=O)[O-])cc21 ?
// result > 100 µM (inactive)

###

Test system: SK-MEL-28
PROCEDURE_DETAILS: NCI tumour cell line growth inhibition, 48 h
The source made the active and inactive calls. Rule as the data show it: active = GI50 up to about 1.1 µM and inactive = higher.
Measured GI50 accompanies every entry in the list below.

// query # query: GI50 of entry COc1cc2c3cc1Oc1cc(ccc1O)C[C@@H]1c4c(cc(OC)c(O)c4Oc4ccc(cc4)C[C@@H]3N(C)CC2)CC[N+]1(C)C
// result > 100 µM (inactive)

New cases:
// query For Cc1cc2nc(O)c(C(C)C(=O)c3ccc(Cl)cc3)nc2cc1C (stereo not given) , what is its reported GI50?
// result 50.8 µM (inactive)

// query Param item: c1ccc(C(c2ccccc2)c2cccnc2)cc1
// result > 100 µM (inactive)

// query Entry to check: O=C1/C(=C/c2cccc([N+](=O)[O-])c2)Cc2ccccc21
// result > 100 µM (inactive)

// query Please do the same for C[C@]12CCC3C4=C(CCC3C1CCC2=O)C(=O)[C@H]1O[C@H]1C4=O (stereo not given in full) as well.
// result 12.3 µM (inactive)
